- Tested on: PC15
- run-description: qHTS profiling for inhibitors of Plasmodium falciparum proliferation (AID 504749); further: nearly all actives have a fitted effect of over 60% in size
- conditions-used: P. falciparum in erythrocytes, SYBR Green DNA, 72 h; series mostly up to 12.8 µM
Results filed as inconclusive are left out. The source made the active and inactive calls. The call rests on the fitted dose curve; in most records, active means well fitted inhibition curve with a large enough effect; inconclusive means small, poorly fitted or top-dose-only effect; inactive means flat fitted curve, though single readings scatter.
Outcomes: 1.0 for active, 0.0 for inactive

>  <compound>
CC1(C)SC2C(N3C(=O)C(c4ccccc4)NC3(C)C)C(=O)N2C1C(=O)O (configuration not stated)

>  <measured-on>
PC15

>  <label>
0.0

$$$$
>  <compound>
COc1ccc2c(c1)N(C[C@@H](C)CN(C)C)c1ccccc1S2

>  <measured-on>
PC15

>  <label>
0.0

$$$$
>  <compound>
CC(=O)OCC(=O)[C@@]1(O)[C@H](C)C[C@@H]2[C@H]3CCC4=CC(=O)C=C[C@]4(C)[C@]3(F)[C@@H](O)C[C@@]21C

>  <measured-on>
PC15

>  <label>
0.0

$$$$
>  <compound>
CC=C(/C(=C/C)c1ccc(O)cc1)c1ccc(O)cc1

>  <measured-on>
PC15

>  <label>
0.0

$$$$
>  <compound>
COC1C=CO[C@@]2(C)Oc3c(C)c(O)c4c(O)c(c5c(nc6cc(C)ccn65)c4c3C2=O)NC(=O)/C(C)=C\C=CC(C)C(O)[C@@H](C)C(O)C(C)[C@@H](OC(C)=O)C1C (some centres not stated)

>  <measured-on>
PC15

>  <label>
1.0

$$$$
>  <compound>
COc1cc2nc(N3CCN(C(=O)[C@@H]4COc5ccccc5O4)CC3)nc(N)c2cc1OC

>  <measured-on>
PC15

>  <label>
0.0

$$$$
>  <compound>
CN1CCO[C@H](c2ccccc2)c2ccccc2C1

>  <measured-on>
PC15

>  <label>
0.0

$$$$
>  <compound>
CCOC(=O)C1=CC(OC(CC)CC)C(NC(C)=O)C(N)C1 (configuration not stated)

>  <measured-on>
PC15

>  <label>
0.0

$$$$
>  <compound>
C[C@@H]1C[C@H]2[C@@H]3C[C@H](F)C4=CC(=O)C=C[C@@]4(C)[C@]3(F)[C@H](O)C[C@]2(C)[C@@]1(O)C(=O)CO

>  <measured-on>
PC15

>  <label>
0.0

$$$$
>  <compound>
CN1C(=O)C[C@H](c2ccccc2)C1=O

>  <measured-on>
PC15

>  <label>
0.0

$$$$
>  <compound>
Cc1cccc(C)c1NC(=O)[C@H](C)N

>  <measured-on>
PC15

>  <label>
0.0

$$$$
>  <compound>
CCCC[C@H](CC)CN1CN(C[C@@H](CC)CCCC)CC(C)(N)C1

>  <measured-on>
PC15

>  <label>
0.0

$$$$

* * *

- System: CP211
- run-description: qHTS profiling for inhibitors of Plasmodium falciparum proliferation (AID 504749); further: nearly all actives have a fitted effect of over 60% in size
- conditions-used: P. falciparum in erythrocytes, SYBR Green DNA, 72 h; series mostly up to 12.8 µM
Records with an inconclusive call do not appear. The source made the active and inactive calls. The call rests on the fitted dose curve; in most records, active means well fitted inhibition curve with a large enough effect; inconclusive means small, poorly fitted or top-dose-only effect; inactive means flat fitted curve, though single readings scatter. Peptide text beside a SMILES is read from it.
Outcome codes: True = active, False = inactive

>  <compound>
CC(=O)[C@]1(O)CCC2C3C=C(Cl)C4=CC(=O)C5CC5[C@@]4(C)C3CC[C@]21C (stereo partly drawn)

>  <label>
False

$$$$
>  <compound>
CCC(=O)[C@@]1(C)[C@H](C)C[C@@H]2[C@@H]3CCC4=CC(=O)C=C[C@@]4(C)[C@H]3[C@H](O)C[C@]21C

>  <label>
False

$$$$
>  <compound>
CC1(C)[C@@H](OC(=O)CCC(=O)O)CC[C@@]2(C)[C@H]1CC[C@@]1(C)[C@H]2C(=O)C=C2[C@H]3C[C@](C)(C(=O)O)CC[C@]3(C)CC[C@@]21C

>  <label>
False

$$$$
>  <compound>
COc1ccc2cc(C(C)CO)ccc2c1 (stereo not drawn)

>  <label>
False

$$$$
>  <compound>
C[C@@]12CCC(=O)C=C1C=CC1C2CC[C@]2(C)C1CC[C@@]21CCC(=O)O1 (stereo partly drawn)

>  <label>
False

$$$$
>  <compound>
CCC(C)(C)C(=O)O[C@@H]1C[C@H](C)C=C2C=C[C@H](C)[C@@H](CC[C@H]3C[C@@H](O)CC(=O)O3)[C@H]21

>  <label>
False

$$$$
>  <compound>
O=C(N/N=C\c1ccc([N+](=O)[O-])o1)c1ccc(O)cc1

>  <label>
True

$$$$
>  <compound>
COC(=O)C(Cc1ccccc1)NC(=O)C(N)CC(=O)O (stereo not drawn) (H-Asp-Phe-OMe; configuration not given here)

>  <label>
False

$$$$
